Assay: Concentration response confirmation VP16 counterscreen for inhibitors of ROR gamma transcriptional activity; also: nearly all actives have a fitted effect of over 70% in size
Settings: Drosophila S2 Gal4-VP16 UAS-luciferase, luminescence, 20 h; series mostly up to 46.1 µM
Results filed as inconclusive are left out. Calls of active or inactive are those of the source. Calls follow the shape of the dose curve; as a rule, active = well fitted inhibition curve with a large enough effect; inconclusive = small, poorly fitted or top-dose-only effect, or effect the other way; inactive = no such curve, though single readings can be large or run the other way.
Respond with a class label; see 1 for active, -1 for inactive

# example entries with known answers
CCOc1ccc2nc(NC(=O)c3cnccn3)sc2c1: 1
Cc1ccc(C(=O)O/N=C/c2ccc(N(C)C)cc2)cc1: -1
Cc1ccc(NC(=S)NCCN(C2CCCCC2)C2CCCC2)cc1C: 1
Cc1cc(NC(=S)NC(=O)/C=C/c2ccc(S(=O)(=O)N3CCOCC3)cc2)ccc1Br: 1
COC(=O)Cn1c(CN2CCN(c3ccc(F)cc3)CC2)nc2c1c(=O)n(C)c(=O)n2C: 1
O=C(CN1CCCCCC1)Nc1ccc(S(=O)(=O)N2CCOCC2)cc1: -1

Prompt: Which outcome was entered for the compound "COc1ccc(C(=O)Nc2cc(-c3ccc(C)cc3)no2)cc1" in this test?
Response: -1

Prompt: Answer briefly: the call reported for "O=C(CCCN1C(=O)/C(=C/c2ccccc2Cl)SC1=S)Nc1cccnc1" in this assay.
Response: 1

Prompt: For "O=c1oc2c3c(nn2c2ccccc12)CCCC3" , what call appears in the results of this test?
Response: -1

----------
Test: Concentration response confirmation VP16 counterscreen for inhibitors of ROR gamma transcriptional activity; also: nearly all actives have a fitted effect of over 70% in size
Settings: Drosophila S2 Gal4-VP16 UAS-luciferase, luminescence, 20 h; series mostly up to 46.1 µM
Results filed as inconclusive are left out. The source made the active and inactive calls. Calls follow the shape of the dose curve; as a rule, active = well fitted inhibition curve with a large enough effect; inconclusive = small, poorly fitted or top-dose-only effect, or effect the other way; inactive = no such curve, though single readings can be large or run the other way.
Respond only with the outcome that fits, drawn from true = active, false = inactive

Please review the entries below; each comes with its answer.
Cc1nc2c(-c3ccccc3)cnn2c(N)c1-c1ccccc1: true
Cc1ccc(-c2n[nH]c(=S)n2/N=C/C=C\c2ccccc2[N+](=O)[O-])cc1: false
CCN(CC)c1ccc2cc(-c3nc4ccccc4[nH]3)c(=O)oc2c1: true

Prompt: Dear all, I need the recorded test outcome for "c1ccc(-c2ncc3c(ccc4ccccc43)n2)cc1" , thank you.
Response: true

Prompt: Test call for this compound, please: "CCn1cc(C(=O)O)c(=O)c2cc(F)c(N3CCN(C(=S)NC(=O)c4ccccc4C)CC3)cc21"
Response: false

Prompt: Test call, this compound: "Cc1ccccc1NC(=O)CCN1CCN(C)CC1"
Response: false

Prompt: Given "Cc1ccc2nc(-c3ccc(NC(=O)COC(=O)c4ccc(=O)[nH]c4)cc3)sc2c1" , state the outcome it received in this test.
Response: true

----------
Test: Concentration response confirmation VP16 counterscreen for inhibitors of ROR gamma transcriptional activity; also: nearly all actives have a fitted effect of over 70% in size
Settings: Drosophila S2 Gal4-VP16 UAS-luciferase, luminescence, 20 h; series mostly up to 46.1 µM
Inconclusive results are not listed. Active and inactive are the calls of the source. Calls come from the whole dose curve; as a rule, active = well fitted inhibition curve with a large enough effect; inconclusive = small, poorly fitted or top-dose-only effect, or effect the other way; inactive = no such curve, though single readings can be large or run the other way.
Outcomes you can answer with include only these: true = active, false = inactive

Examples with answers:
COc1ccc(-c2nnc(-c3ccc(N(C)C)cc3)o2)cc1: false
CCCCCCn1ccc(=N)cc1: true

Prompt: Entry "COc1ccc(Cl)c(Cn2c(NCc3ccco3)nc3c2c(=O)n(C)c(=O)n3C)c1" : call = ?
Response: true

Prompt: What classification did CCC(C)[C@H](NC(=O)NCc1ccco1)C(=O)O (some centres undefined) end up with in this test?
Response: false

Prompt: Recorded test call requested for "Cc1ccc(S(=O)(=O)NCc2ccncc2)cc1"
Response: true

Prompt: How was "O=C(c1cc(-c2ccc(Cl)cc2)n[nH]1)N1CCc2ccccc2C1" classified in this test?
Response: false

Prompt: Please state the recorded outcome for this compound: "COc1ccc(-c2cc(C(=O)NNC3=NCCC3)c3c(C)nn(-c4ccccc4)c3n2)cc1"
Response: true

Prompt: In this assay, the call recorded for COc1cc(C(=O)NC2CC(C)(C)Cc3c2cnn3-c2ccccc2)cc(OC)c1OC (centres undefined) was what?
Response: false

Prompt: Called result for "Cn1nnnc1NCc1ccccc1F"
Response: false

Prompt: Entry "CNc1cc(C(F)(F)F)nc(-c2ccccn2)n1" : call = ?
Response: true
